# TEST PROTOCOL: yeast display, Sf9 membrane polyspecificity reagent, FACS + sequencing; frameworks hold sequencing errors
REPORTED ENDPOINT: polyreactivity (PSR sort gate)

QVQLVESGGGLVQAGGSLRLSCAASGYIFNYNAMGWYRQAPGKERELVAVIRVSVGSTYYADSVKGRFTISRDNAKNTVYLQMNSLKPEDTAVYYCAADRGARGDYWGQGTQVTVSS; high polyreactivity
QVQLVESGGGLVQAGGSLRLSCAASGRTSRYYAMGWYRQAPGKERELVAAISSSGGNTYYADSVKGRFTISRDNAKNTVYLQMNSLKPEDTAVYYCNAYYPIRSSPYGYYYWGQGTQVTVSS; high polyreactivity
QVQLVESGGGLVQAGGSLRLSCAASGYIIGGNAMGWYRQAPAKERELVAVISSRGGRTYYADSVKGRFTISRDNAKNTVSLQMNSQKPEDTAVYDCASIRYRGARGSGDKIFYYWGQGTQVTVSS; high polyreactivity

----------
# TEST PROTOCOL: yeast display, Sf9 membrane polyspecificity reagent, FACS + sequencing; frameworks hold sequencing errors
REPORTED ENDPOINT: polyreactivity (PSR sort gate)

QVQLVESGGGLVQAGGSLRLSCAASGSIFDIYAMGWYRQAPGKERELVAAISWNGGDTTYADSVKGRFTISRDNEKNTVYLQMNSLKPEYTAVYYCAADLGYWVADYYWGQGTQVTVSS; high polyreactivity
QVQLVESGGGLVQAGGSLRLSCDASGFTFYGYAMGWYRQAPGKERELVAAISGNGARTYYADSVKGRFTISRDNAKNTVYLQMNSLKPEDTAVYYCNADPATWWRNKEDYWGQGTQVTVSS; high polyreactivity

----------
# TEST PROTOCOL: yeast display, Sf9 membrane polyspecificity reagent, FACS + sequencing; frameworks hold sequencing errors
REPORTED ENDPOINT: polyreactivity (PSR sort gate)

QVQLVESGGGLVQAGGSLRLICAASGRIFGYNAMGWSRQAPGKERELVAAIRGSGSTYYADSVKGRFTISRDNAKNTVYLQMNSLKPEDTAVYYCAARTSSTKYYYWGQGTQVTVSS; high polyreactivity
QVQLVESGGGLVQAGGSLRLSCAASGITFWYYAMGWYRQAPGKERELVAAITGGDSTNYADSVKGRFTISRDNAKNTVYLQMNSLKPEDTAVYYCNAEGSYEGYDDYWGHGTQVTVSS; high polyreactivity

----------
# TEST PROTOCOL: yeast display, Sf9 membrane polyspecificity reagent, FACS + sequencing; frameworks hold sequencing errors
REPORTED ENDPOINT: polyreactivity (PSR sort gate)

Sample records with polyreactivity (PSR sort gate):
QVQLVESGGGLVQAGGSLRLSCAASGRTLHDYTMGWYRQAPGKERELVAGITSGGRTNYADSVKGRFTISRDNAKNTVYLQMNSLKPEDTAVYYCAAAWTWWRLYADDYWGQGTQVTVSS; high polyreactivity
QVQLVESGGGLVQAGGSLRLSCAASGFTFLYNAMGWYRQAPGKERELVAAIDSGGNTNYADSVKGRFTISRDNAKNTVYLQMNSLKPEDTAVYYCAADVVSVGQGTADYDYWGQGTQVTVSS; low polyreactivity
QVQLVESGGGLVQAGGSLRLSCAASGSIFDVNAMGWYRQAPGKERELVAAITSSGGSTYYADSVKGRFTISRDNAKNTVYLQMNSLKPEDTAVYYCAAYSLYTMYWGQGTQVTVSS; low polyreactivity
QVQHVESGGGLVQAGGSLRLSCAASGSTYTVYAMGRDRQAPGKERELVAAISGSGGRTYYADSVKGRFTISRDNAKNTVYLQMNILKPEDTGVYYCASQGNYWGQGTQVTVSS; high polyreactivity
QVQLVESGGGLVQAGGSLRLSCAASGSIFTDYTMGWYRQAPGKERELVAAISWIGDSTDYADSVKGRFTISRDNAKNTVYLQMNSLKPEDTAVYYCAKSRAGRYNDYDYWGQGTQVTVSS; low polyreactivity
QVQLVESGGGLVQAGGSLRLSCAASGRTFWYYTMGWYRQAPGKERELVAAITSGGSTYYADSVKGRFTISRDNAKNTVYLQMNSLKPEDTAVYYCAAYLYWDFTYYYALVDYWGQGTQVTVSS; high polyreactivity
QVQLVESGGGLVQAGGSLRLSCAASGNTFFTYAMGWYRQAPGQERELVAVITSVGSTNYADSVKGLFTISRDNAKNTVYLQMNSLKPEDTAVYYCAAKGYRVYRYYRGRTYDYWGQGSQVTVSS; high polyreactivity
QVQLVESGGGLVQAGGSLRLSCAASGSTFPPYAMGWYRQAPGKERELVADITRRGASTYYADSVKGRFTISRDNAKNTVYLQMNSLKPEDTAVYYCNAGRSRRYRIGRYYYWGQGTQVTVSS; high polyreactivity

In: Please give measured polyreactivity (PSR sort gate) of the following entry: QVLLQESGGGLVQAGGSLRQSCAASGNIFSAGGMGWYRQAPVNERELVAGIGTGTSTNYADSVKGRFTISRDNAKNTVYLQMNSLKPEDTAVYFCAAAFYSGLSHWYWGQGTQVTVSS
Out: low polyreactivity

In: State its polyreactivity (PSR sort gate): QVQLVESRGALVQAGGSLRLSCAASGSIFSRYAMGWYRQAPGKERELVAAIRWTDSSTYYADSVKGRFTISRDHAKNTVYLQMNSLKPEDTAVYDCAKVYEGGSNKVDYWGQGTQVTVSS
Out: low polyreactivity

In: Quick one: give measured polyreactivity (PSR sort gate) for QVQLVESGGGLVQAGGSLRLSCAASGLIFWYYAMGWYRQAPGTERELVASISSGGDTTYADSVKGRFTISRDNAKKTVYLQMNSLKPEDTAVYDCAAERYVRVWVAGILHYDYWGQGTQVTGSS
Out: low polyreactivity

In: Consider the sequence QVQLVESGGGLVQAGGSLRLSCAASGRTFPRYAMGWYRQAPGKEMELVAAISVRAGITYYADSVKGRFTISRDNAKNTVYLQMNSLKPEDTAVYYCAKDHWTTSYDEGDYWGQGTQVTVSS and give its recorded polyreactivity (PSR sort gate).
Out: low polyreactivity

In: Look up and state reported polyreactivity (PSR sort gate) for QVHLVESGGGLVQAGGSLRLSCAASGFIFEPYAMGCYRQAPWKEWELVAAISSGGSTYADSVKGRFTISRDNAKNTVYLQMISLKPEDTAVYYCAADSYYSVWGFYFWGQGTQVTVSS
Out: low polyreactivity

In: Supply recorded polyreactivity (PSR sort gate) for QVQLVESGGGLVQAGGSLRLSCAASGLIFSGYAMGWYRQAPGKDRELVAALTRRGSRTYYADSVKGRFTISRDNAKNTVYLQMNSLKPEDTAVYYCAADRFQGRDDYWGQGTQVTVSS here.
Out: high polyreactivity

In: Fill in polyreactivity (PSR sort gate) for record QVQLVESGGGLVQAGGSLRLSCAASGLTFYSNSMGWYRPAPGKERELVAVISADGASTYYADSVKGRFTISRDNAKNTVYLQMNSLKPEDTAVYYCAARVSARGKGYYWGQGTQVTVSS
Out: high polyreactivity

In: Return polyreactivity (PSR sort gate) for the following sequence: QVQLVESGGGLVQAGGSLRLSCAASGRIFTSNAMGWYRQAPGKERELVAAISKSGGRTYYADSVKGRFTISRDNAKNTVYLQMNSLKPEDTAVYYCAKDNYWGQGTQVTVSS
Out: high polyreactivity

In: Supply measured polyreactivity (PSR sort gate) of QVQLVESGGGLVQAGGSLRLSCAASGSIFSGYTMGWYRQAPGKERELVAAISSDGSTTYADSVKGRFTISRDNAKNTVYLQMNSLKPEDTAVYYCAAYPYWDGSYGGYDYWGQGTQVTVSS in your reply.
Out: low polyreactivity
